Ref: the supplement of paper PMC11246515

ASSAY_SUMMARY: total protein half-life in vivo (active degradation + dilution); higher = more stable protein
CONDITIONS: wild type E. coli NCM3722; growth: P-lim chemostat; doubling time 12 h
PROPERTY_MEASURED: total protein half-life in vivo (h)
// units = h; emit number, no label

The cases that follow already have their total protein half-life in vivo on record.
GET /value?item= MSDVLRPYRDLFPQIGQRVMIDDSSVVIGDVRLADDVGIWPLVVIRGDVHYVQIGARTNIQDGSMLHVTHKSSYNPDGNPLTIGEDVTVGHKVMLHGCTIGNRVLVGMGSILLDGAIVEDDVMIGAGSLVPQNKRLESGYLYLGSPVKQIRPLSDEEKAGLRYSANNYVKWKDEYLDQGNQTQP [P0A9W9] &field=total protein half-life in vivo returns 14.3

GET /value?item= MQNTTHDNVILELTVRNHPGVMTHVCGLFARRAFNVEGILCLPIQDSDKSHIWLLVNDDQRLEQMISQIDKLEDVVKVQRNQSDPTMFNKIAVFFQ [P0ADF8] &field=total protein half-life in vivo returns 5.91

GET /value?item= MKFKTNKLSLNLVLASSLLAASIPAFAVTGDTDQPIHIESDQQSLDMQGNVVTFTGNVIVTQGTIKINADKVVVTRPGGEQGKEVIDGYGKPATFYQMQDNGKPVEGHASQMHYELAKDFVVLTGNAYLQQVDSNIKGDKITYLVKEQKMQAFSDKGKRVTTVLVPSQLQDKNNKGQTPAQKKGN [P0ADV1] &field=total protein half-life in vivo returns 11.8

GET /value?item= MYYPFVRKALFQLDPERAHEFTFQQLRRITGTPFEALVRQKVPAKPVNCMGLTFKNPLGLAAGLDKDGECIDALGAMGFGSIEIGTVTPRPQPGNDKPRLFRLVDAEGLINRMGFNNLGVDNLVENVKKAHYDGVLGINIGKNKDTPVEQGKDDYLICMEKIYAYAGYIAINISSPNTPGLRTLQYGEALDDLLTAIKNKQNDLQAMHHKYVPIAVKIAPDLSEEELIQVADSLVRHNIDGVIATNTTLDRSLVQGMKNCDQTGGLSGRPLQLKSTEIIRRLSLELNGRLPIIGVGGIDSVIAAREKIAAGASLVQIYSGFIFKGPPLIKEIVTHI [P0A7E1] &field=total protein half-life in vivo returns 14.2

GET /value?item= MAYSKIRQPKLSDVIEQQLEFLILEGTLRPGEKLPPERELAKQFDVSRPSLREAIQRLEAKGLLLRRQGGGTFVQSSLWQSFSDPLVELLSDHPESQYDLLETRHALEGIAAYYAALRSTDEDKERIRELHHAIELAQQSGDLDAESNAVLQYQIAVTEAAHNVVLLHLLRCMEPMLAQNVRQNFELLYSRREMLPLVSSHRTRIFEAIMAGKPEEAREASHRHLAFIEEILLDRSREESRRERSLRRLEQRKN [P0ACL9] &field=total protein half-life in vivo returns 11.2

***
GET /value?item= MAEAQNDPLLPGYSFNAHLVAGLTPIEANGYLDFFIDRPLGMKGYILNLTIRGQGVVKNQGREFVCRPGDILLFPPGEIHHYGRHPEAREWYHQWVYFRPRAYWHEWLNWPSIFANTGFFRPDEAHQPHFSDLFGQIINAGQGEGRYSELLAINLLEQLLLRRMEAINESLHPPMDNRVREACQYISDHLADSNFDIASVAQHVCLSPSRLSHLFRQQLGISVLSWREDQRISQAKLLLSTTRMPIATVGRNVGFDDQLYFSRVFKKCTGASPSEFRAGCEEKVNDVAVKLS [P0A9E0] &field=total protein half-life in vivo returns 1.12

====

ASSAY_SUMMARY: total protein half-life in vivo (active degradation + dilution); higher = more stable protein
CONDITIONS: E. coli NCM3722 delta-lon; growth: N-lim chemostat; doubling time 6 h
List of total protein half-life in vivo values.
The answer consists of two parts: a number and, after it, its unit.

GET /value?item= MIEILHEYWKPLLWTDGYRFTGVAITLWLLILSVVIGGVLALFLAIGRVSSNKYIQFPIWLFTYIFRGTPLYVQLLVFYSGMYTLEIVKGTEFLNAFFRSGLNCTVLALTLNTCAYTTEIFAGAIRSVPHGEIEAARAYGFSTFKMYRCIILPSALRIALPAYSNEVILMLHSTALAFTATVPDLLKIARDINAATYQPFTAFGIAAVLYLIISYVLISLFRRAEKRWLQHVKPSSTH [P0AEU3] &field=total protein half-life in vivo returns 6.71 h

***
GET /value?item= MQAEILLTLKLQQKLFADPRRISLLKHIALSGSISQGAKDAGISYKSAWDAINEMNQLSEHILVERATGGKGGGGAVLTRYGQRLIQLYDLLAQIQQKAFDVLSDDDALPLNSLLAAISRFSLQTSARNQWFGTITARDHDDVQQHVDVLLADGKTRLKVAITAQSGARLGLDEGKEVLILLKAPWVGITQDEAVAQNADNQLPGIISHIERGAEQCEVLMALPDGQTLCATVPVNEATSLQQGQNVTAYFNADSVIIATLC [P0A9G8] &field=total protein half-life in vivo returns 6.41 h

GET /value?item= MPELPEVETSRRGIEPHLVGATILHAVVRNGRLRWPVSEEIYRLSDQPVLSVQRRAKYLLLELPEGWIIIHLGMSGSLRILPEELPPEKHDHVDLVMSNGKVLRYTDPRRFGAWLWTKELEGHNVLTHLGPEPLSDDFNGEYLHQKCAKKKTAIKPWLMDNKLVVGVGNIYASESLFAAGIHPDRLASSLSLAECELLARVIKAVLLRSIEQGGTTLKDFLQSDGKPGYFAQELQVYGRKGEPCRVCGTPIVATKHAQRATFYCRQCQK &field=total protein half-life in vivo returns 6.39 h

====

ASSAY_SUMMARY: total protein half-life in vivo (active degradation + dilution); higher = more stable protein
CONDITIONS: wild type E. coli NCM3722; growth: P-lim chemostat; doubling time 12 h
PROPERTY_MEASURED: total protein half-life in vivo
The answer consists of two parts: a number and, after it, its unit.

GET /value?item= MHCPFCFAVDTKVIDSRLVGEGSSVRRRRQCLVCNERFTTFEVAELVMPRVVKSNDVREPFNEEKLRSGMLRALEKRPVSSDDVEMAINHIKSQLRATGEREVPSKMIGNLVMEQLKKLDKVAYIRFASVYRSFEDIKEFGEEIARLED [P0A8D0] &field=total protein half-life in vivo returns 10.8 h

# input for lookup
GET /value?item= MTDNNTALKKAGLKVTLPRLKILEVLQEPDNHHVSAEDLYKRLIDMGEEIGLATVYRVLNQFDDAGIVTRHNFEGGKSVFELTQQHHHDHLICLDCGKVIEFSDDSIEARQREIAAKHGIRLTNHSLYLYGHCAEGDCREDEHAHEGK [P0A9A9] &field=total protein half-life in vivo returns 11.5 h

====

ASSAY_SUMMARY: total protein half-life in vivo (active degradation + dilution); higher = more stable protein
CONDITIONS: E. coli NCM3722 delta-clpP; growth: N-lim chemostat; doubling time 6 h
List of total protein half-life in vivo values.
// units = h; emit number, no label

The cases that follow already have their total protein half-life in vivo on record.
GET /value?item= MPFRSNNPITRDELLSRFFPQYHPVTTFNSGLSGGSFLIEHQGQRFVVRQPHDPDAPQSAFLRQYRALSQLPACIAPKPHLYLRDWMVVDYLPGAVKTYLPDTNELAGLLYYLHQQPRFGWRITLLPLLELYWQQSDPARRTVGWLRMLKRLRKAREPRPLRLSPLHMDVHAGNLVHSASGLKLIDWEYAGDGDIALELAAVWVENTEQHRQLVNDYATRAKIYPAQLWRQVRRWFPWLLMLKAGWFEYRWRQTGDQQFIRLADDTWRQLLIKQ &field=total protein half-life in vivo returns 6.27

GET /value?item= MLYIFRLIITVIYSILVCVFGSIYCLFSPRNPKHVATFGHMFGRLAPLFGLKVECRKPTDAESYGNAIYIANHQNNYDMVTASNIVQPPTVTVGKKSLLWIPFFGQLYWLTGNLLIDRNNRTKAHGTIAEVVNHFKKRRISIWMFPEGTRSRGRGLLPFKTGAFHAAIAAGVPIIPVCVSTTSNKINLNRLHNGLVIVEMLPPIDVSQYGKDQVRELAAHCRSIMEQKIAELDKEVAEREAAGKV &field=total protein half-life in vivo returns 6.07

GET /value?item= MELKDYYAIMGVKPTDDLKTIKTAYRRLARKYHPDVSKEPDAEARFKEVAEAWEVLSDEQRRAEYDQMWQHRNDPQFNRQFHHGDGQSFNAEDFDDIFSSIFGQHARQSRQRPATRGHDIEIEVAVFLEETLTEHKRTISYNLPVYNAFGMIEQEIPKTLNVKIPAGVGNGQRIRLKGQGTPGENGGPNGDLWLVIHIAPHPLFDIVGQDLEIVVPVSPWEAALGAKVTVPTLKESILLTIPPGSQAGQRLRVKGKGLVSKKQTGDLYAVLKIVMPPKPDENTAALWQQLADAQSSFDPRKDWGKA &field=total protein half-life in vivo returns 5.61

***
GET /value?item= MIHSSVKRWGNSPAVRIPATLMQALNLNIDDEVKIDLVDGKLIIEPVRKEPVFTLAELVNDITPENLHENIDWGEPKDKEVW [P0AE72] &field=total protein half-life in vivo returns 2.31

GET /value?item= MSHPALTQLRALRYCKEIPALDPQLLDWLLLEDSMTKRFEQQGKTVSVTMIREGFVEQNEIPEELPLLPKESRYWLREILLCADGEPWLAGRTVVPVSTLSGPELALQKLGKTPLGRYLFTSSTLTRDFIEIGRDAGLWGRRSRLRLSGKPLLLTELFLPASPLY &field=total protein half-life in vivo returns 2.28

GET /value?item= MMNSTNKLSVIIPLYNAGDDFRTCMESLITQTWTALEIIIINDGSTDNSVEIAKYYAENYPHVRLLHQANAGASVARNRGIEVATGKYVAFVDADDEVYPTMYETLMTMALEDDLDVAQCNADWCFRETGETWQSIPTDRLRSTGVLTGPDWLRMGLSSRRWTHVVWMGVYRRDVIVKNNIKFIAGLHHQDIVWTTEFMFNALRARYTEQSLYKYYLHNTSVSRLHRQGNKNLNYQRHYIKITRLLEKLNRNYADKIMIYPEFHQQITYEALRVCHAVRKEPDILTRQRMIAEIFTSGMYKRLITNVRSVKVGYQALLWSFRLWQWRDKTRSHHRITRSAFNLR &field=total protein half-life in vivo returns 0.858
